Ref: ChEMBL document CHEMBL3627615

# Test system: HEK293
# method_summary: Cytotoxicity against human HEK293 cells after 36 hrs by MTT assay
# Type: cell-based
# experimental_parameters: HEK293, 36 h
Exercise: for every item that follows, state its recorded IC50.

input: Dear colleague, I am looking for the recorded IC50 of the following molecule: Cc1ccc(-c2nc(CN3CCC(C(=O)c4ccc5c(c4)OCCO5)CC3)co2)cc1
output: > 150 µg/mL

input: Dear colleague, I am looking for the recorded IC50 of the following molecule: O=C(c1ccc2c(c1)OCCO2)C1CCN(Cc2coc(-c3ccccc3)n2)CC1
output: > 150 µg/mL

input: Dear colleague, I am looking for the recorded IC50 of the following molecule: O=C(c1ccc2c(c1)OCCO2)C1CCN(Cc2coc(-c3ccc(Cl)cc3)n2)CC1
output: > 150 µg/mL

input: Dear colleague, I am looking for the recorded IC50 of the following molecule: O=C(c1ccc(F)c(F)c1)C1CCN(Cc2coc(-c3ccc(F)cc3)n2)CC1
output: > 150 µg/mL

input: Dear colleague, I am looking for the recorded IC50 of the following molecule: O=C(c1ccc2c(c1)OCCO2)C1CCN(Cc2coc(-c3ccoc3)n2)CC1
output: > 150 µg/mL

input: Dear colleague, I am looking for the recorded IC50 of the following molecule: O=C(c1ccc2c(c1)OCCO2)C1CCN(Cc2coc(-c3cccc(F)c3)n2)CC1
output: > 150 µg/mL

input: Dear colleague, I am looking for the recorded IC50 of the following molecule: Cc1ccc(C(=O)C2CCN(Cc3coc(-c4ccc(F)cc4)n3)CC2)cc1
output: > 150 µg/mL

input: Dear colleague, I am looking for the recorded IC50 of the following molecule: O=C(c1ccc2c(c1)OCCO2)C1CCN(Cc2coc(-c3ccc(C(F)(F)F)cc3)n2)CC1
output: > 150 µg/mL

input: Dear colleague, I am looking for the recorded IC50 of the following molecule: COc1ccc(-c2nc(CN3CCC(C(=O)c4ccc5c(c4)OCCO5)CC3)co2)cc1
output: > 150 µg/mL

input: Dear colleague, I am looking for the recorded IC50 of the following molecule: O=C(c1ccc2c(c1)OCCO2)C1CCN(Cc2coc(-c3ccccc3F)n2)CC1
output: > 150 µg/mL

input: Dear colleague, I am looking for the recorded IC50 of the following molecule: O=C(c1ccc2c(c1)OCCO2)C1CCN(Cc2coc(-c3ccc(Br)cc3)n2)CC1
output: > 150 µg/mL

input: Dear colleague, I am looking for the recorded IC50 of the following molecule: Cc1ccc(C(=O)C2CCN(Cc3coc(-c4ccc(F)cc4)n3)CC2)cc1C
output: > 150 µg/mL

input: Dear colleague, I am looking for the recorded IC50 of the following molecule: O=C(c1ccccc1)C1CCN(Cc2coc(-c3ccc(F)cc3)n2)CC1
output: > 150 µg/mL

###

# System: HEK293
# method_summary: Cytotoxicity against human HEK293 cells after 36 hrs by MTT assay
# Type: cell-based
# experimental_parameters: HEK293, 36 h
Exercise: for every item that follows, state its recorded IC50.

input: Please provide the recorded IC50 for O=C(c1ccc2c(c1)OCCO2)C1CCN(Cc2coc(-c3ccc(F)c(F)c3)n2)CC1 , tested on HEK293.
output: > 150 µg/mL

input: Please provide the recorded IC50 for CC(C)(C)c1ccc(-c2nc(CN3CCC(C(=O)c4ccc5c(c4)OCCO5)CC3)co2)cc1 , tested on HEK293.
output: > 150 µg/mL

input: Please provide the recorded IC50 for O=C(c1ccc2c(c1)OCCO2)C1CCN(Cc2coc(-c3cccnc3)n2)CC1 , tested on HEK293.
output: > 150 µg/mL

input: Please provide the recorded IC50 for O=C(c1ccc2c(c1)CCCC2)C1CCN(Cc2coc(-c3ccc(F)cc3)n2)CC1 , tested on HEK293.
output: > 150 µg/mL

input: Please provide the recorded IC50 for O=C(c1ccc2c(c1)OCCO2)C1CCN(Cc2coc(-c3ccco3)n2)CC1 , tested on HEK293.
output: > 150 µg/mL

input: Please provide the recorded IC50 for CC(C)(C)c1ccc(-c2nc(CN3CCC(C(=O)c4ccc5c(c4)CCCC5)CC3)co2)cc1 , tested on HEK293.
output: > 150 µg/mL

input: Please provide the recorded IC50 for COc1ccc(C(=O)C2CCN(Cc3coc(-c4ccc(F)cc4)n3)CC2)cc1OC , tested on HEK293.
output: > 150 µg/mL

input: Please provide the recorded IC50 for COc1ccc(C(=O)C2CCN(Cc3coc(-c4ccc(F)cc4)n3)CC2)cc1 , tested on HEK293.
output: > 150 µg/mL

input: Please provide the recorded IC50 for O=C(c1ccc2c(c1)OCCO2)C1CCN(Cc2coc(-c3ccc(F)cc3)n2)CC1 , tested on HEK293.
output: > 150 µg/mL
